Molecular target: AMPK
Assay: AMPK activation, enzyme-linked immunosorbent assay
Type: biochemical
Conditions: compounds of Table 5 (Table 10)
measured-quantity: EC50

Use these answered entries as a reference point.
Given the compound O=C(NC1CCN(Cc2ccccc2)CC1)c1ccc(OC2CCN(c3ccco3)CC2)c(Cl)c1 , what is its reported EC50?
1000 to 10000 nM

# input compound: O=C(NC1CCN(Cc2ccccc2)CC1)c1cccc(OC2CCN(Cc3ccc(C(F)(F)F)cc3)CC2)c1 ; wanted: its EC50
1000 to 10000 nM

Which measured EC50 value corresponds to N#Cc1ccc(CN2CCC(Oc3cccc(C(=O)NC4CCN(Cc5ccccc5)CC4)c3)CC2)cc1 ?
1000 to 10000 nM

# map each compound to its EC50
1. N#Cc1ccc(N2CCC(Oc3cccc(C(=O)NC4CCN(Cc5ccncc5)CC4)c3)CC2)cc1
2. N#Cc1ccc(CN2CCC(NC(=O)c3ccc(OC4CCN(c5ccc(C#N)cc5)CC4)c(F)c3)CC2)cc1
3. COC(=O)c1ccc(CN2CCC(NC(=O)c3ccc(OC4CCN(c5ccc(C(F)(F)F)cc5)CC4)c(F)c3)CC2)cc1
4. O=C(NC1CCN(Cc2ccccc2)CC1)c1cccc(OC2CCN(c3ccc(C(F)(F)F)cc3)CC2)c1
5. O=C(NC1CCN(Cc2ccccc2)CC1)c1ccc(OC2CCN(c3ccc(C(F)(F)F)cc3)CC2)c(Cl)c1

1: 1000 to 10000 nM; 2: < 1000 nM; 3: < 1000 nM; 4: < 1000 nM; 5: < 1000 nM
